Biological target: human mAChR M1 (Homo sapiens, UniProt P11229)
Sequence (P11229 1-460): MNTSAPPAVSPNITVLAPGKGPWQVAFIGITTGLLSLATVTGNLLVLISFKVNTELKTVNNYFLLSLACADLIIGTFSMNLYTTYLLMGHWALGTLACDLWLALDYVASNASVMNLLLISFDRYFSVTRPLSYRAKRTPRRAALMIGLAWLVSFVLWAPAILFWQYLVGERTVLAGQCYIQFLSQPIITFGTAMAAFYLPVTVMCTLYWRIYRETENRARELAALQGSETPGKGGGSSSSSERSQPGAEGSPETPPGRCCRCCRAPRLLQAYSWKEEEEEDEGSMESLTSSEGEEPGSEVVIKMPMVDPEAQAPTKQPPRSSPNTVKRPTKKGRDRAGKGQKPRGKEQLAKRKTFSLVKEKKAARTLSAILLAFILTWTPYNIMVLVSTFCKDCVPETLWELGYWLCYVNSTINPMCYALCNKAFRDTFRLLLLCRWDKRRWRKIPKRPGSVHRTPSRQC
Experiment: mAChR M1 cell-based functional assay (calcium mobilization), agonist mode: compound alone, Emax relative to acetylcholine maximum
Conditions: relative to the maximum for acetylcholine
property measured: Emax (%)

What Emax value was documented for this molecule, [2H]C1([2H])c2ncccc2C(=O)N1Cc1c(F)cc(-c2ccc(C(F)(F)F)c3nn(C)cc23)cc1OCC(C)C ?
2

What Emax value was documented for this molecule, [2H]C1([2H])c2ncccc2C(=O)N1Cc1c(F)cc(-c2ccc(C(F)(F)F)c3nn(C)cc23)cc1C1CC1 ?
25

What Emax value was documented for this molecule, [2H]C1([2H])c2ncccc2C(=O)N1Cc1c(F)cc(-c2ccc(O[C@H]3CCOC3)c3nn(C)cc23)cc1F ?
28

What Emax value was documented for this molecule, [2H]C1([2H])c2ncccc2C(=O)N1Cc1c(F)cc(-c2cc(F)cc3nn(C([2H])([2H])[2H])cc23)cc1F ?
2

What Emax value was documented for this molecule, [2H]C1([2H])c2ncccc2C(=O)N1Cc1c(F)cc(-c2cc(Cl)cc3nn(C)cc23)cc1F ?
1

1 = [2H]C1([2H])c2ncccc2C(=O)N1Cc1c(F)cc(-c2cc(Cl)cc3c2cnn3C([2H])([2H])[2H])cc1F
2 = [2H]C1([2H])c2ncccc2C(=O)N1Cc1ccc(-c2ccc(C)c3nn(C([2H])([2H])[2H])cc23)cc1C
3 = [2H]C1([2H])c2ncccc2C(=O)N1Cc1c(C)cc(-c2ccc(OC)c3nn(C([2H])([2H])[2H])cc23)cc1F
4 = [2H]C1([2H])c2ncccc2C(=O)N1Cc1ccc(-c2ccc(OC[C@@H](C)OC)c3nn(C)cc23)cc1F
Arrange by Emax, high to low. Give the labels in the order requested.
3, 4, 2, 1

I = [2H]C1([2H])c2ncccc2C(=O)N1Cc1c(F)cc(-c2ccc(OC(F)(F)F)c3nn(C)cc23)cc1F
II = [2H]C1([2H])c2ncccc2C(=O)N1Cc1ccc(-c2ccc3nn(C)cc3c2C)cc1F
III = [2H]C1([2H])c2ncccc2C(=O)N1Cc1c(C)cc(-c2ccc3nn(C([2H])([2H])[2H])cc3c2)cc1F
IV = [2H]C1([2H])c2ncccc2C(=O)N1Cc1c(F)cc(-c2ccc(OCc3ccccc3)c3nn(C)cc23)cc1F
List by increasing Emax. Give the labels in the order requested.
IV, I, II, III

I = [2H]C1([2H])c2ncccc2C(=O)N1Cc1ccc(-c2cncc3nn(C)cc23)cc1F
II = [2H]C1([2H])c2ncccc2C(=O)N1Cc1c(F)cc(-c2cnc3nn(C)cc3c2)cc1Cl
Of I and II , whose reported Emax is numerically smaller? Indicate your choice by writing its label.
I

a = [2H]C1([2H])c2ncccc2C(=O)N1Cc1ccc(-c2ccc3cncn3c2)cc1
b = [2H]C1([2H])c2ncccc2C(=O)N1Cc1c(Cl)cc(-c2cccc3nn(C)cc23)cc1C1CC1
c = [2H]C1([2H])c2ncccc2C(=O)N1Cc1c(Cl)cc(-c2cccc3nn(C)cc23)cc1Cl
d = [2H]C1([2H])c2ncccc2C(=O)N1Cc1ccc(-c2cccc3nncn23)cc1
e = [2H]C([2H])([2H])c1cc2c(-c3cc(F)c(CN4C(=O)c5cccnc5C4([2H])[2H])c(F)c3)cccn2n1
Arrange by Emax, high to low. Give the labels in the order requested.
e, b, d, a, c

P = [2H]C1([2H])c2ncccc2C(=O)N1Cc1c(F)cc(-c2ccc(C)c3nn(C)cc23)cc1Cl
Q = [2H]C1([2H])c2ncccc2C(=O)N1Cc1c(F)cc(-c2ccnc3nn(C)cc23)cc1Cl
R = [2H]C1([2H])c2ncccc2C(=O)N1Cc1ccc(-c2ccc3cn(C)nc3c2)cc1F
S = [2H]C1([2H])c2ncccc2C(=O)N1Cc1c(F)cc(-c2ccc(OCC3CCCO3)c3nn(C)cc23)cc1F (stereo not shown)
T = [2H]C1([2H])c2ncccc2C(=O)N1Cc1c(F)cc(-c2ccc(OCCOC)c3nn(C)cc23)cc1Cl
Arrange by Emax, high to low. Give the labels in the order requested.
S, Q, T, R, P
(S: 23%, Q: 16%, T: 9%, R: 3%, P: 2%)

a = [2H]C1([2H])c2ncccc2C(=O)N1Cc1c(F)cc(-c2ccc(OC3CN(C(=O)OC(C)(C)C)C3)c3nn(C)cc23)cc1F
b = [2H]C1([2H])c2ncccc2C(=O)N1Cc1ccc(-c2ccc(OC(F)(F)F)c3nn(C)cc23)cc1F
c = [2H]C1([2H])c2ncccc2C(=O)N1Cc1c(F)cc(-c2ccnc3nn(C)cc23)cc1OCC(C)C
List by increasing Emax. Give the labels in the order requested.
a, b, c
(a: 2%, b: 4%, c: 23%)
